Tested on: TNFα
PROTOCOL_TEXT: Cot Monocyte TNFα Cell Based Assay
RECORDED_CONDITIONS: LPS-stimulated cryopreserved human monocytes, TNFα by TR-FRET
pEC50: −log10 of the molar value.
ASSAY_ENDPOINT: pEC50

[1] [2H][C@](Nc1cc(Br)c2ncnc(NCC(C)(C)C)c2c1)(c1ccc(F)cc1)c1cn(C2CC2)nn1 [I-15]
[2] Cc1nc(F)ccc1[C@H](Nc1cc(Cl)c2ncnc(NCC(C)(C)C)c2c1)c1cn(C2(C(F)F)CC2)nn1 [I-21]
Query block: Given 1 and given 2 , which shows the smaller recorded pEC50? Response format: the label of the selected entry.
Result block: 1
(1: 7.09, 2: 7.55)

====

Tested on: TNFα
PROTOCOL_TEXT: Cot Monocyte TNFα Cell Based Assay
RECORDED_CONDITIONS: LPS-stimulated cryopreserved human monocytes, TNFα by TR-FRET
pEC50: −log10 of the molar value.
ASSAY_ENDPOINT: pEC50

Sample records with pEC50:
{"MOLECULE": "Cn1ccc2c([C@H](Nc3cc(Cl)c4ncnc(NCC(C)(C)C)c4c3)c3cn(C45CC(C4)C5)nn3)cccc2c1=O", "TEST_TARGET": "TNFα", "ENDPOINT_VALUE": 7.92}
{"MOLECULE": "CC(C)(C)CNc1ncnc2ccc(N[C@@H](c3ccc(F)cc3)c3cn(C4CC4)nn3)cc12", "TEST_TARGET": "TNFα", "ENDPOINT_VALUE": 7.07}

[P] [2H][C@](Nc1ccc2ncnc(NCC(C)(C)C)c2c1)(c1ccc(F)cc1)c1cn(C2CC2)nn1
[Q] [2H]C(Nc1ccc2ncnc(NC(CC#N)c3ccccc3)c2c1)(c1ccc(F)cc1)c1cn(C2CC2)nn1 (stereo not shown)
Query block: Which shows the larger pEC50 value: P or Q ? Please identify the chosen entry by its label.
Result block: P

====

TEST_TARGET: Human Cot (Homo sapiens (Human), UniProt P41279)
Sequence (P41279 30-397): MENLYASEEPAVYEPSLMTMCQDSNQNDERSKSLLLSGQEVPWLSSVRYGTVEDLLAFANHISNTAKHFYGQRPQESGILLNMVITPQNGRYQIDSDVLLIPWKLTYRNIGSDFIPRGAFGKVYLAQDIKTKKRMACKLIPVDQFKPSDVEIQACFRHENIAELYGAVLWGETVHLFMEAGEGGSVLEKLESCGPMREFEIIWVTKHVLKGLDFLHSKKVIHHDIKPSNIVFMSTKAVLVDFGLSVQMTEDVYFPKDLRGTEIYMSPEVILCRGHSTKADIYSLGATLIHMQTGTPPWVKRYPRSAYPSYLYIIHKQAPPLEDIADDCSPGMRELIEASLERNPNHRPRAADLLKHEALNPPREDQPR
PROTOCOL_TEXT: High Throughput Cot Biochemical Assay (KinEASE TR-FRET)
RECORDED_CONDITIONS: recombinant human Cot catalytic domain, 400 μM ATP
Method: Example 24: High Throughput Cot Biochemical Assay Human Cot enzyme activity was measured using KinEASE (Cisbio), a time-resolved fluorescence resonance energy transfer (TR-FRET) immunoassay. […] Formation of phosphorylated peptide is quantified by TR-FRET with Europium as the donor and XL665 the acceptor in a 2-step endpoint assay. […] Fluorescence intensities at 615 nm and 665 nm emission wavelengths were expressed as a ratio (665 nm/615 nm).
pIC50: −log10 of the molar value.
ASSAY_ENDPOINT: pIC50

Consider the worked cases shown below.
{"MOLECULE": "Cc1nc(F)ccc1[C@H](Nc1cc(C#N)c2ncnc(NCC(C)(C)C)c2c1)c1cn(C2(C(F)F)CC2)nn1 [I-22]", "pIC50": 8.77}
{"MOLECULE": "[2H][C@](Nc1ccc2ncnc(Nc3cnc(F)c(F)c3)c2c1)(c1ccc(F)cc1)c1cn(C2CC2)nn1 [II-11]", "pIC50": 7.13}
{"MOLECULE": "CCN1CCC(n2cc(C(Nc3cc(Cl)c4ncnc(Nc5ccc(F)c(Cl)c5)c4c3)c3ccccc3)nn2)CC1 (centres unmarked) [II-3]", "pIC50": 7.72}
{"MOLECULE": "CC(C)(C)CNc1ncnc2c(C#N)cc(N[C@H](c3cn(C4(C(F)(F)F)CC4)nn3)c3cccc4ncsc34)cc12 [I-17]", "pIC50": 8.48}
{"MOLECULE": "CC(C)(C)CNc1ncnc2ccc(N[C@@H](c3ccc(F)cc3)c3cn(C4CC4)nn3)cc12 [I-2]", "pIC50": 8.11}
{"MOLECULE": "Cn1ccc2c([C@H](Nc3cc(Cl)c4ncnc(NCC(C)(C)C)c4c3)c3cn(C45CC(C4)C5)nn3)cccc2c1=O [I-27]", "pIC50": 8.77}
{"MOLECULE": "Fc1ccc(Nc2ncnc3ccc(N[C@@H](c4ccc(Cl)cc4)c4cn(C5CCN(C6COC6)CC5)nn4)cc23)cc1Cl [II-8]", "pIC50": 6.50}
{"MOLECULE": "Cn1ccc2c([C@H](Nc3cc(C#N)c4ncnc(NCC(C)(C)C)c4c3)c3cn(C4(C(F)F)CC4)nn3)cccc2c1=O [I-24]", "pIC50": 8.92}
{"MOLECULE": "Cc1nc(F)ccc1[C@H](Nc1cc(Cl)c2ncnc(NCC(C)(C)C)c2c1)c1cn(C2(C(F)F)CC2)nn1 [I-21]", "pIC50": 8.72}
{"MOLECULE": "[2H][C@@](Nc1cc(Cl)c2ncnc(NCC(C)(C)C)c2c1)(c1cn(CC(=O)O)nn1)c1ccccc1Cl [I-10]", "pIC50": 7.89}

[a] [2H][C@](Nc1cc(C#N)c2ncnc(NCC(C)(C)C)c2c1)(c1ccc(F)cc1)c1cn(C2CC2)nn1 [I-14]
[b] Fc1ccc(Nc2ncnc3ccc(N[C@@H](c4ccc(Cl)cc4)c4cn(C5COC5)nn4)cc23)cc1Cl [II-7]
[c] [2H][C@](Nc1cc(Cl)c2ncnc(N[C@H](CCC#N)c3ccccc3)c2c1)(c1ccc(F)cc1)c1cn(C2(C(F)(F)F)CC2)nn1 [I-12]
Query block: List from greatest to least pIC50. Present the labels in the sequence the task asks for.
Result block: a, c, b

[a] [2H][C@](Nc1ccc2ncnc(NCC(C)(C)C)c2c1)(c1cccc(C#N)c1)c1cn(C2CC2)nn1 [I-7]
[b] CC(C)(C)N1CCC(n2cc([C@@H](Nc3ccc4ncnc(Nc5ccc(F)c(Cl)c5)c4c3)c3ccc(Cl)cc3)nn2)CC1 [II-5]
[c] [2H][C@](Nc1ccc2ncnc(NCC(C)(C)C)c2c1)(c1ccc(F)cc1)c1cn(C2CC2)nn1 [I-1]
[d] CCN1CCC(n2cc([C@@H](Nc3cc(Cl)c4ncnc(Nc5ccc(F)c(Cl)c5)c4c3)c3ccc(Cl)cc3)nn2)CC1 [II-10]
Query block: Ascending sort, pIC50. List the labels according to the requested ordering.
Result block: b, d, c, a
(b: 7.14, d: 7.77, c: 8.30, a: 8.59)

[1] Cn1ccc2c([C@H](Nc3cc(Cl)c4ncnc(NCC(C)(C)C)c4c3)c3cn(C4(C(F)F)CC4)nn3)cccc2c1=O [I-25]
[2] Fc1ccc(Nc2ncnc3ccc(N[C@@H](c4ccc(Cl)cc4)c4cn(C5CCNCC5)nn4)cc23)cc1Cl [II-6]
[3] Fc1ccc(Nc2ncnc3c(Cl)cc(NC(c4ccccc4)c4cn(C5CCNCC5)nn4)cc23)cc1Cl (centres unmarked) [II-2]
Query block: Sort by pIC50, descending. Answer by writing out the labels in the requested order.
Result block: 1, 3, 2

[P] [2H]C(Nc1ccc2ncnc(NC(CC#N)c3ccccc3)c2c1)(c1ccc(F)cc1)c1cn(C2CC2)nn1 (centres unmarked) [I-5]
[Q] [2H][C@](c1ccc(F)cc1)(c1cn(C2CC2)nn1)N(CC)c1ccc2ncnc(NCC(C)(C)C)c2c1 [I-6]
[R] O=C(OCc1ccccc1)N1CCC(n2cc(C(Nc3cc(Cl)c4ncnc(Nc5ccc(F)c(Cl)c5)c4c3)c3ccccc3)nn2)CC1 (centres unmarked) [II-1]
Query block: Sort the 3 molecules by pIC50; largest first, smallest last. Please express your ranking as an ordered list of the labels.
Result block: P, Q, R
(P: 7.28, Q: 6.56, R: 5.07)

[a] [2H][C@](Nc1ccc2ncnc(N[C@H](CC)c3ccccc3)c2c1)(c1ccc(F)cc1)c1cn(C2CC2)nn1 [I-4]
[b] [2H][C@](Nc1cc(Br)c2ncnc(NCC(C)(C)C)c2c1)(c1ccc(F)cc1)c1cn(C2CC2)nn1 [I-15]
[c] CCN1CCC(n2cc([C@@H](Nc3cc(Cl)c4ncnc(Nc5ccc(F)c(Cl)c5)c4c3)c3ccccc3)nn2)CC1 [II-4]
Query block: Arrange these 3 molecules in increasing order of pIC50. Labels, ranked as asked.
Result block: a, c, b

[1] [2H][C@](Nc1ccc2ncnc(NCC3(C)CCOCC3)c2c1)(c1ccc(F)cc1)c1cn(C2CC2)nn1 [I-3]
[2] [2H][C@@](Nc1cc(C#N)c2ncnc(NCC(C)(C)C)c2c1)(c1cn(C2CC2)nn1)c1ccccc1Cl [I-19]
Query block: Hi, I'm comparing 1 with 2 and wondering which one has the bigger number for pIC50. Any idea? Your answer should be the label of the entry you select.
Result block: 2
(2: 8.62, 1: 7.96)
